- assay.notes: inhibitors of TNFa-induced NFkB p65 translocation, primary screen, imaging, HUVEC, MLSMR starter and 10KST1 sets (AID 438);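 note: compound added about 3h40 before a 20 min TNFalpha stimulation; signal is the nuclear over cytoplasmic p65 intensity ratio per well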
- conditions: HUVEC TNFa-induced p65 nuclear translocation; at 2 µM, hits give high values, 0% TNFa-plus-vehicle, 100% no-TNFa wells
quantity.kind: inhibition (%)

compound="C=CCc1cc(OC)ccc1OCC(O)CN1CCN(c2ccc(OC)cc2)CC1 (stereo not drawn)" quantity_kind=inhibition test_result=2.5
compound=O=C(NCCCNCc1ccccc1)/C(=N\O)c1ccccc1 quantity_kind=inhibition test_result=-4.7
compound=COc1ccc2nc(SCC(=O)O)nc(C)c2c1 quantity_kind=inhibition test_result=-2.5
